Target: CYP1A2 (Homo sapiens, UniProt P05177)
Construct: assay run by Bienta (Enamine Biology Services)
Sequence (P05177 2-516 limits assumed): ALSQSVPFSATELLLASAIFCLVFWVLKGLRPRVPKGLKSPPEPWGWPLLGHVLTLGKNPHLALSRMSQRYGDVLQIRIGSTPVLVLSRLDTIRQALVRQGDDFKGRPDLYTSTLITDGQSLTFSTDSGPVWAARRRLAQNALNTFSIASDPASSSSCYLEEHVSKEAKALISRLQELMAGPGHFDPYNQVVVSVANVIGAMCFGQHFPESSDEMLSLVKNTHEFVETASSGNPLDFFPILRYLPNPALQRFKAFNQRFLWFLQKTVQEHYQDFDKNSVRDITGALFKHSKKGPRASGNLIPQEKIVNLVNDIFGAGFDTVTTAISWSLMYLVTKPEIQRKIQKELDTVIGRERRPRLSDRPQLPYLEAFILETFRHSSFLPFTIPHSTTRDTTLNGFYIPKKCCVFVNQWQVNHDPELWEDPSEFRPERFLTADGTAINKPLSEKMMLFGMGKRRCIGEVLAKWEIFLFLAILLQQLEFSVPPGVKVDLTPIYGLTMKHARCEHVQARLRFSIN
Experiment: In vitro CYP450 inhibition assay (Vivid)
Assay type: biochemical
Conditions: probe fluorogenic Vivid CYP450 substrate (not named)
Observable: inhibition at 25 min, 10 µM (%)
Report the figure in % without appending any unit label.

Value wanted: inhibition at 25 min, 10 µM (CYP1A2 (Homo sapiens, UniProt P05177)) of entry O=P(O)(O)CP(=O)(O)OC[C@H]1O[C@@H](n2ccc3c(-c4cccc5c4CCCC5)nc(Cl)nc32)[C@H](O)[C@@H]1O [7B.12]
0

Now try O=P(O)(O)CP(=O)(O)OC[C@H]1O[C@@H](n2ccc3c(-c4ccc5c(c4)CCCC5)nc(I)nc32)[C@H](O)[C@@H]1O [27H.23] .
-4

Now try O=P(O)(O)CP(=O)(O)OC[C@H]1O[C@@H](n2ccc3c(-c4ccc5ccccc5c4)ncnc32)[C@H](O)[C@@H]1O [4A.7] .
7

Now try O=P(O)(O)CP(=O)(O)OC[C@H]1O[C@@H](n2ccc3c(-c4ccc5c(c4)CCCC5)nc(Cl)nc32)[C@H](O)[C@@H]1O [7B.23] .
-17
